# reported ACTIVITY (%) LCAT; entries follow
Biological target: T1, lecithin:cholesterol acyltransferase (LCAT), purified from human plasma (human, UniProt P04180 25-440)
T1 sequence (looked up): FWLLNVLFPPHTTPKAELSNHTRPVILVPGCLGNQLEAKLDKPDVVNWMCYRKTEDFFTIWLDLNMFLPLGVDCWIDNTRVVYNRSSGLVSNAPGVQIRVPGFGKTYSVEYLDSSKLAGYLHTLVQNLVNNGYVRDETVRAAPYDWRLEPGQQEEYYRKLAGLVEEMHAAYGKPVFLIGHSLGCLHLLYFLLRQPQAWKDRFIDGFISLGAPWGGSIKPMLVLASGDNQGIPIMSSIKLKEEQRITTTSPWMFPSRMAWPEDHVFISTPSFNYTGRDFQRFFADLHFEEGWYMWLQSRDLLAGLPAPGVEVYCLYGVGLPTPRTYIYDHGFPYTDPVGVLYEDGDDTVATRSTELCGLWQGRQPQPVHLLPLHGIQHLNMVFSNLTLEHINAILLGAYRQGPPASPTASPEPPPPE
Test: cell-based or functional assay
Non-standard residues stand in square brackets, D forms with d. No end group written: not given here. Aib = CC(C)(N)C(=O)O
Quantity kind: ACTIVITY (%) LCAT

binder="PVLDLFRELLNEWLEALKQKLK [peptide 54]" readout_number=19
binder="PVLDEFREKLNE[Aib]WEALKQKLK [peptide 42]" readout_number=25
binder="KLKQKLAELLENLLERFLDLVP (all D-amino acids (lower case)) [peptide 107]" readout_number=0
binder="PVLELFENLLERLGDALQKKLK [peptide 148]" readout_number=75
binder="PVLDLFRELLNELLEALXQXLX (Orn (O) at 18, 20, 22) [peptide 14]" readout_number=61
binder="PVLDLFRELLNE[Aib]LEALKQKLK [peptide 6]" readout_number=80
binder="PVLDEFREKLNELLEALKQKLK [peptide 84]" readout_number=7
